Test: In vitro cytotoxicity in Vero cells
Assay type: cell-based, African green monkey (Chlorocebus sp.)
Settings: African green monkey, Vero cells (kidney epithelial cells), CC50, Vero cell, mean ± SD
readoutLabel: CC50 at 48 h (µM)
One number for each entry, in µM.

# compound, CC50 at 48 h (µM)
records = [
    ("C[C@H]1[C@@H](O)O[C@@H]2O[C@@]3(C)CC[C@H]4[C@H](C)CC[C@@H]1[C@@]24OO3 [DHA, Dihydroartemisinin]", 31.3),
]

Attention now shifts to the item below.
Consider the compound shown here: CCN(CC)CCCC(C)Nc1ccnc2cc(Cl)ccc12 (centres unmarked) What is its recorded CC50 at 48 h? 120
